// data source = ChEMBL document CHEMBL1201862

Answer each item with its documented AC50.
biological target: UniProt:P11712
Sequence (P11712 whole entry): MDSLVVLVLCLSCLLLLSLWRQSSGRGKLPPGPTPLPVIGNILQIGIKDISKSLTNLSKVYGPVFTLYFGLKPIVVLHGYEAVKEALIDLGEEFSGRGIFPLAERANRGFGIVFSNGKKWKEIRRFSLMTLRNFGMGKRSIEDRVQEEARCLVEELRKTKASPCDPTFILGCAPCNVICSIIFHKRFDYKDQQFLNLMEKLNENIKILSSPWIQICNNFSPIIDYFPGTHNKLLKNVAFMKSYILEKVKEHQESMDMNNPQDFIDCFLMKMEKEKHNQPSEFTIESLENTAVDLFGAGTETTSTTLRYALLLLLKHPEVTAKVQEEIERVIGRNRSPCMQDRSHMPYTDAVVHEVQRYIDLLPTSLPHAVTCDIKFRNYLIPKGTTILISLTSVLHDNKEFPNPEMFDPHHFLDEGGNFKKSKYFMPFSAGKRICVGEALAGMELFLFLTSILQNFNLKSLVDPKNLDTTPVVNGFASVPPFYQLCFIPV

Consider the molecule CC(OC(=O)Cn1c(C(F)(F)F)nc2ccccc21)C(N)=O (stereo not given) and give its measured AC50.
0.631 µM (inconclusive)

// next record `CCS(=O)(=O)N1CCC(C(=O)NCc2cccnc2)CC1`
11.2 µM (inconclusive)

// next record `CC(=O)[C@@H]1CC[C@@H]2[C@@H]3CCC4=CC(=O)CC[C@@]4(C)[C@H]3CC[C@]21C`
15.8 µM (inconclusive)

// next record CC(C)CCOc1ccc(NC(=O)C2OC3OC(C)(C)OC3C3OC(C)(C)OC23)cc1 (stereo not given)
25.1 µM (inconclusive)

// next record `COc1ccc(NC(=O)CSc2nnc(C3CC3)n2N)cc1`
28.2 µM (inconclusive)

* * *

target: UniProt:P42574; assay type: functional
Sequence (P42574 29-175 limits assumed): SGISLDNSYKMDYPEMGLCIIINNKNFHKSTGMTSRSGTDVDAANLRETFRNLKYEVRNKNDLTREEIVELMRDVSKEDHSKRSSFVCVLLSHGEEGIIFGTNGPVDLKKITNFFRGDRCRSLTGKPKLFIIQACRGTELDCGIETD
Sequence (P42574 176-277 limits assumed): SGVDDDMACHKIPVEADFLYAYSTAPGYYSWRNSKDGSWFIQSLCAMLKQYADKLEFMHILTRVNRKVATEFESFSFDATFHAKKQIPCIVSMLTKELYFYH
Active and inactive are the calls of the source.
Answer each item with its documented IC50.

Kindly state the measured IC50 obtained for `Cc1nc2ccc(NC(=O)c3cc(Cl)ccn3)cc2s1` with UniProt:P42574.
3.79 µM (active)

// next record O=[N+]([O-])c1ccc(O)c(C2=NNC(c3ccccc3F)C2)c1 (stereo unspecified)
68.6 µM (active)

// next record `Cc1oc2c(c1C(=O)N1CCC(C)CC1)C(=O)c1ccccc1C2=O`
10.2 µM (active)

// next record `CN(CC(=O)Nc1ccc(Cl)cc1)C(=O)CNC(=O)c1ccc2ccccc2c1`
26.4 µM (active)

// next record `O=C(Nc1ccc(Cl)c(Cl)c1)c1ccco1`
17 µM (active)

// next record `COc1ccccc1N1CCN(/N=C/c2ccc([N+](=O)[O-])cc2)CC1`
2.68 µM (active)

* * *

target: Protein RecA (Mycobacterium tuberculosis, UniProt P9WHJ3); test: Fluorescence Cell-Free Homogeneous Dose Retest to Identify Inhibitors of RecA-Intein Splicing Activity. [Related pubchem assays (depositor defined):AID2097, AID2223, AID489010, AID492950]; assay type: functional
Answer each item with its documented EC50.

Consider the compound `O=C(Cc1ccccc1F)Nc1nc2ccccc2[nH]1` and give its measured EC50.
> 380 µM (inconclusive)

// next record `COc1nc(NC(C)C)nc(N(C#N)CN2C(=O)c3ccccc3S2(=O)=O)n1`
26.4 µM (inconclusive)

// next record `Oc1ccc(/C=N/Nc2ccc(C(F)(F)F)cn2)c(O)c1`
110 µM (inconclusive)

* * *

molecular target: Corticotropin-releasing factor receptor 2/Corticotropin-releasing factor-binding protein (Homo sapiens, UniProt P24387+Q13324); assay: activators of CRF receptor 2 with binding protein – uHTS hits, confirmation (AID 602473); assay type: functional; conditions: read-out: EC50_Mean
Sequence (Q13324 whole entry): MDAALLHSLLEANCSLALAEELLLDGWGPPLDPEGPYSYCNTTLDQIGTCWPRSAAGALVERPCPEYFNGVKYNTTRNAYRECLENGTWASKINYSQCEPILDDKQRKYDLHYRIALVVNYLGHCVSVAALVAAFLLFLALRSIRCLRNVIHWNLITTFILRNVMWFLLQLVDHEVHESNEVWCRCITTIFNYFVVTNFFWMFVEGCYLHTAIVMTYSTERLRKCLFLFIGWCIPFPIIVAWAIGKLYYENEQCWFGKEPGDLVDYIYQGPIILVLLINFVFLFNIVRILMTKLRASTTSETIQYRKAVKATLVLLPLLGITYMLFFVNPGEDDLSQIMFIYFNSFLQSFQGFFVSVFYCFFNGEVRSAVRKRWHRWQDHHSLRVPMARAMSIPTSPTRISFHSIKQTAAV
Sequence (P24387 whole entry): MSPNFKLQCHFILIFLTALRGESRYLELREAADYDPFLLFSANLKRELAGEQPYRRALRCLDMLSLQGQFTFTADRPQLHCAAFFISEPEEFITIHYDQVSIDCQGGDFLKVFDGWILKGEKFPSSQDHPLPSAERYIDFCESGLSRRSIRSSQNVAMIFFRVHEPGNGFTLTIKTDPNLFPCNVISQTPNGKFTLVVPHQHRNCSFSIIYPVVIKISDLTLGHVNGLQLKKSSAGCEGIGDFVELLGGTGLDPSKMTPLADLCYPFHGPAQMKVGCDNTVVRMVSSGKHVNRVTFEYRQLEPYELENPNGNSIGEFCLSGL
Active and inactive are the calls of the source.
Answer each item with its documented EC50.

Consider the compound `O=C(NNC(=O)c1ccccc1C(=O)O)c1ccc(O)cc1` and give its measured EC50.
> 53 µM (inactive)

// next record CCN1C(=O)CC2CCCC1C2 (stereo not given)
> 53 µM (inactive)

// next record `N#Cc1ccc(CN(Nc2ccccc2)c2ccccc2)cc1`
> 53 µM (inactive)

// next record `CS(=O)(=O)Oc1ccc(Br)c2cccnc12`
> 53 µM (inactive)

// next record `CCc1nc(NCCC(C)C)c(C#N)c2c1CCCC2`
> 53 µM (inactive)

// next record CC(C)Cc1ccc(C(C)C(=O)Nc2ccc(O)cc2)cc1 (stereo not given)
3.77 µM (active)

// next record `Cc1ccc(S(=O)(=O)c2nc(S(C)(=O)=O)sc2N2CCOCC2)cc1`
> 53 µM (inactive)

// next record `Cc1ccc2oc(=O)c(/C=C(\O)c3cccs3)nc2c1`
4.87 µM (active)

// next record `COc1ccc(C(=O)COC(=O)c2cccnc2SC)cc1`
> 53 µM (inactive)

// next record `Cn1c(COc2ccccc2)nnc1SCC(=O)c1cccc([N+](=O)[O-])c1`
> 53 µM (inactive)
